molecular target: UniProt P35968; experiment: Inhibition of vascular endothelial growth factor receptor 2
pIC50: −log10 of the molar value.
Hi, to clarify the labels: yes (1) covers pIC50 from 6 upward, no (0) covers anything below 6.

O=C(COc1ccccc1)Nc1cncc(-c2cncc(Nc3cccc(Cl)c3)n2)c1    no (0)
O=C(COCc1ccccc1)Nc1cncc(-c2cncc(Nc3cccc(Cl)c3)n2)c1    no (0)
Clc1cccc(Nc2cncc(-c3cncc(NCCOc4ccccc4)c3)n2)c1    no (0)

Task: Dear colleague, could you confirm whether CN(C)c1ccc(C(=O)Nc2cncc(-c3cncc(Nc4cccc(Cl)c4)n3)c2)cc1 has pIC50 at or above 6?
Output: no (0)

Task: Input Clc1cccc(Nc2cncc(-c3cncc(NCCCN4CCOCC4)c3)n2)c1
Output: yes (1)

Task: Input O=C(NCCCO)c1cncc(-c2cncc(Nc3cccc(Cl)c3)n2)c1
Output: no (0)

---

// reported IC50 per item
target: Vascular endothelial growth factor receptor 2 (Homo sapiens); assay: Inhibition of vascular endothelial growth factor receptor 2
Sequence (P35968 whole entry): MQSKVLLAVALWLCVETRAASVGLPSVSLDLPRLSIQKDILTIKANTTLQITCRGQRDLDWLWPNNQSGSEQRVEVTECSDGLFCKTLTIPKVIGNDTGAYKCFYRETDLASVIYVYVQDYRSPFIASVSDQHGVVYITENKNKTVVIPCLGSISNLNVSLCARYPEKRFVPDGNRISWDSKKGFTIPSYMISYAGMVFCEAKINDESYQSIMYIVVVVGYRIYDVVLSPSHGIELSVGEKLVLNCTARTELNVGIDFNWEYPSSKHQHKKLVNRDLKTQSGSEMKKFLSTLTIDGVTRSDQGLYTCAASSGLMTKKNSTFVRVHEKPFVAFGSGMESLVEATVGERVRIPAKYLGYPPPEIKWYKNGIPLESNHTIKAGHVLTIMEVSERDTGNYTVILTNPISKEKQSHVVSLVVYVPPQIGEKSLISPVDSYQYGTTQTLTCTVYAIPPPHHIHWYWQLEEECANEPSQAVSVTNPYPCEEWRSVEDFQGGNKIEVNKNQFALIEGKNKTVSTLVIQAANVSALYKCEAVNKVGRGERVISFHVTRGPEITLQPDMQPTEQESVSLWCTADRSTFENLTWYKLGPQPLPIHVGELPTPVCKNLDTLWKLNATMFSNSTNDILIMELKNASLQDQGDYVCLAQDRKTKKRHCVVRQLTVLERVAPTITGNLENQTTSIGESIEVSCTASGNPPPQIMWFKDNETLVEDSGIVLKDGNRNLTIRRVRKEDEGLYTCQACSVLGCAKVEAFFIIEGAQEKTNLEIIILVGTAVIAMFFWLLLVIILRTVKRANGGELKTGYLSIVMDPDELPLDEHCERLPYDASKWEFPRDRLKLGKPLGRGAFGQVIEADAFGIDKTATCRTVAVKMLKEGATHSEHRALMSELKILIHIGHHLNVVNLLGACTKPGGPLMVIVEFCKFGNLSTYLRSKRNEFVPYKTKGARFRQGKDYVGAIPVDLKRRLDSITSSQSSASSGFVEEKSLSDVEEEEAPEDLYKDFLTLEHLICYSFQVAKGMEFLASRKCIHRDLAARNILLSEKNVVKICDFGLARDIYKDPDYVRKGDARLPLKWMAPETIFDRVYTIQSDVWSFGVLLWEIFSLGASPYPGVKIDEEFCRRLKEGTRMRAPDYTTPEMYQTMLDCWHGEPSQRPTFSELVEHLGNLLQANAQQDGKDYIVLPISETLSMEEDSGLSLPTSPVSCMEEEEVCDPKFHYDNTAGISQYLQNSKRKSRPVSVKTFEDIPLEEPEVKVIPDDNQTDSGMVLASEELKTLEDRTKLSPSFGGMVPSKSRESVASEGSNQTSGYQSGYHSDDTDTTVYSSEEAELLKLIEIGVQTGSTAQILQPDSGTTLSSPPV
Numbers only here, please. The scale is µM.

Nc1ncc(NCCCO)cc1-c1cncc(Nc2cccc(Cl)c2)n1    1.36
Clc1ccc(Nc2cncc(-c3cncc(NCCCc4ccncc4)c3)n2)cc1    1

# input for lookup
Task: What measured IC50 goes with OCCCNc1cncc(-c2cncc(NCc3ccccc3)n2)c1 ?
Output: 1.05
